B1: Lysozyme C, P61626 (parent)
chain: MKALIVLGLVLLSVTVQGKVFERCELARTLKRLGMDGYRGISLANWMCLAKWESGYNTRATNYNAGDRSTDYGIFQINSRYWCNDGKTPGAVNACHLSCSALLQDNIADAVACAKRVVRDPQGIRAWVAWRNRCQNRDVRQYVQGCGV

- Variants of: B1
- experimental-setup: Homo sapiens; pH 3.02; Thermal; DSC; glycine 0.05 M; reversible: yes; structure 1LZ1; whole UniProt chain shown
property-label: unfolding enthalpy (van 't Hoff) (kJ/mol)
Provide the reading as a plain figure in kJ/mol.

1. MKALIVLGLVLLSVTVQGKVFERCELARTLKRLGMDGYRGISLANWMCLAKWESGYNTRATNYNAGDRSTDYGIFQINSRYWCNDGKTPGAVNACHLSCSALLQDNIADAVACAKRVVRDPQGIRAWVAWRNRCQNRDVRQYAQGCGV ... 326
2. MKALIVLGLVLLSVTVQGKVFERCELARTLKRLGMDGYRGISLANWMCLAKWESGYNTRATNYNAGDRSTDYGIFQINSRYWCNDGKTPGAVNACHLSCSALLQDNIADAAACAKRVVRDPQGIRAWVAWRNRCQNRDVRQYVQGCGV ... 347
3. MKALIVLGLVLLSVTVQGKVFERCELARTLKRLGMDGYRGISLANWMCLAKWESGYNTRATNYNAGDRSTDYGIFQINSRYWCNDGKTPGAVNACHLSCSALLQDNIADAVACAKRAVRDPQGIRAWVAWRNRCQNRDVRQYVQGCGV ... 302

Challenge: Fill in the blank: the reported unfolding enthalpy (van 't Hoff) of `MKALIVLGLVLLSVTVQGKVFERCELARTLKRLGMDGYRGISLANWMCLAKWESGYNTRATNYNAGDRSTDYGIFQINSRYWCNDGKTPGAVNACHLSCSALLQDNIADAVACAKRVARDPQGIRAWVAWRNRCQNRDVRQYVQGCGV` is ____.
Response given: 341

Challenge: Fill in the blank: the reported unfolding enthalpy (van 't Hoff) of `MKALIVLGLVLLSVTVQGKAFERCELARTLKRLGMDGYRGISLANWMCLAKWESGYNTRATNYNAGDRSTDYGIFQINSRYWCNDGKTPGAVNACHLSCSALLQDNIADAVACAKRVVRDPQGIRAWVAWRNRCQNRDVRQYVQGCGV` is ____.
Response given: 282

Data origin, for the record: FireProtDB (doi:10.1006/jmbi.1998.1906)
